# target-of-assay: CDK2/Cyclin E complex (Homo sapiens)
# protocol: CDK2/Cyclin E fluorescence-based microfluidic mobility shift assay (CDK2 Biochemical Caliper Assay)
# experimental-setup: read-out: Biochemical CDK2/CyclinE Caliper IC50
pIC50: −log10 of the molar value.
recorded-metric: pIC50

compound	target-of-assay	endpoint-value
CC(C)n1cnnc1O[C@H]1CO[C@@H](c2cc(NC(=O)c3cc(COC(F)(F)F)nn3C)n[nH]2)C1	CDK2/Cyclin E complex (Homo sapiens)	≥ 7.00
Cc1cc(CC(=O)Nc2cc([C@H]3CC[C@@H](CC(=O)O)C3)[nH]n2)on1 (single isomer, unassigned)	CDK2/Cyclin E complex (Homo sapiens)	4.00 to 6.00
C[C@H](NC(=O)O[C@H]1CO[C@@H](c2cc(Nc3ccc4c(n3)C(C)(C)NC4=O)n[nH]2)C1)C1CC1	CDK2/Cyclin E complex (Homo sapiens)	≥ 7.00
Cn1nc(OCC(F)F)cc1C(=O)Nc1cc([C@H]2C[C@@H](OC(=O)NC34CC(C3)C4)CO2)n[nH]1	CDK2/Cyclin E complex (Homo sapiens)	≥ 7.00
COCc1cc2c(Nc3cc([C@H]4CC[C@@H](Oc5cccnc5)C4)[nH]n3)nccn2n1 (single isomer, unassigned)	CDK2/Cyclin E complex (Homo sapiens)	4.00 to 6.00
COCc1cc(C(=O)Nc2cc([C@H]3C[C@@H](COc4cn(C)nc4C(C)C)C3)[nH]n2)n(C)n1	CDK2/Cyclin E complex (Homo sapiens)	6.60 to 7.00
Cc1cc(CC(=O)Nc2cc(-c3csc4cnc(NC(C)C)nc34)[nH]n2)on1	CDK2/Cyclin E complex (Homo sapiens)	6.00 to 6.60
COCc1cc(C(=O)Nc2cc(-c3csc4cnc(NC(C)C)nc34)[nH]n2)n(C)n1	CDK2/Cyclin E complex (Homo sapiens)	4.00 to 6.00

Q) Would you mind telling me what pIC50 value was observed for Cc1cc(CC(=O)Nc2cc([C@H]3CC[C@@H](OC(=O)N4CC5CC(C5)C4)C3)[nH]n2)on1 ?
A) ≥ 7.00

Q) Would you mind doing Cc1ncccc1O[C@H]1CC[C@@H](c2cc(Nc3ncnc4ncccc34)n[nH]2)C1 (single isomer, unassigned) as well?
A) ≥ 7.00

Q) Would you mind doing COCc1cc2c(Nc3cc([C@H]4C[C@@H](OC(=O)N[C@@H]5CC5(C)C)CO4)[nH]n3)nccn2n1 as well?
A) ≥ 7.00

Q) Would you mind doing COCc1cc(C(=O)Nc2cc([C@H]3C[C@@]4(CN(CC(C)C)C(=O)N4)C3)[nH]n2)n(C)n1 as well?
A) 6.00 to 6.60

----------
# target-of-assay: CDK2/Cyclin E complex (Homo sapiens)
# protocol: CDK2/Cyclin E fluorescence-based microfluidic mobility shift assay (CDK2 Biochemical Caliper Assay)
# experimental-setup: read-out: Biochemical CDK2/CyclinE Caliper IC50
pIC50: −log10 of the molar value.
Reported values of pIC50 for individual entries

compound	pIC50
CCC1(NC(=O)O[C@H]2CO[C@@H](c3cc(Nc4nccn5nc(COC)cc45)n[nH]3)C2)CC1	≥ 7.00
c1cc2nc(Nc3cc(C4CCCC4)[nH]n3)ccn2n1	6.00 to 6.60
COCc1cc2c(Nc3cc([C@H]4C[C@@H](Oc5nncn5C(C)C)CO4)[nH]n3)nccn2n1	6.60 to 7.00
COCc1cc(C(=O)Nc2cc([C@H]3C[C@@H](COc4cn[nH]c4C(C)(C)C)C3)[nH]n2)n(C)n1	≥ 7.00
Cc1cc(CC(=O)Nc2cc([C@H]3CC[C@@H](Oc4ccccc4)C3)[nH]n2)on1 (single isomer, unassigned)	6.60 to 7.00
Cc1csc2nc(Nc3cc(C4CCCC4)[nH]n3)ncc12	4.00 to 6.00

Q) Would you mind telling me what pIC50 value was observed for COCc1cc(C(=O)Nc2cc([C@H]3C[C@@H](COc4nscc4C4CC4)C3)[nH]n2)n(C)n1 ?
A) ≥ 7.00

Q) Would you mind doing CC(C)NC(=O)O[C@@H]1CO[C@H](c2cc(Nc3nccc4ncsc34)n[nH]2)C1 as well?
A) 6.60 to 7.00

----------
# target-of-assay: CDK2/Cyclin E complex (Homo sapiens)
# protocol: CDK2/Cyclin E fluorescence-based microfluidic mobility shift assay (CDK2 Biochemical Caliper Assay)
# experimental-setup: read-out: Biochemical CDK2/CyclinE Caliper IC50
Reported values of IC50 for individual entries

Solved entries:
molecule	IC50
CC(C)NC(=O)O[C@@H]1CC[C@H](c2cc(Nc3nc4cccnc4o3)n[nH]2)C1 (racemic)	≤ 0.1 µM
COCc1cc2c(Nc3cc([C@H]4C[C@@H](OC(=O)N[C@H]5CC[C@@H](OC)CC5)CO4)[nH]n3)nccn2n1	1 to 100 µM

Q) Would you mind telling me what IC50 value was observed for CNC(=O)O[C@H]1CC[C@@H](c2cc(Nc3ccc4c(n3)C(C)(C)NC4=O)n[nH]2)C1 (single isomer, unassigned) ?
A) ≤ 0.1 µM

Q) Would you mind doing CC1(NC(=O)O[C@H]2CO[C@@H](c3cc(Nc4nccc5[nH]cnc45)n[nH]3)C2)CC1 as well?
A) 0.25 to 1 µM

Q) Would you mind doing COCc1cc2c(Nc3cc([C@H]4C[C@@H](OC(=O)NC(C)(C)COC)CO4)[nH]n3)nccn2n1 as well?
A) ≤ 0.1 µM

Q) Would you mind doing COCc1cc2c(Nc3cc([C@H]4C[C@@H](OC(=O)N[C@H](C)C(F)(F)F)CO4)[nH]n3)nccn2n1 as well?
A) ≤ 0.1 µM

Q) Would you mind doing Cc1cc(CC(=O)Nc2cc([C@@H]3CC[C@H](n4cc(C)[nH]c4=O)C3)[nH]n2)on1 (single isomer, unassigned) as well?
A) 0.25 to 1 µM

----------
# target-of-assay: CDK2/Cyclin E complex (Homo sapiens, UniProt P24941)
# protocol: CDK2/Cyclin E fluorescence-based microfluidic mobility shift assay (CDK2 Biochemical Caliper Assay)
# experimental-setup: read-out: Biochemical CDK2/CyclinE Caliper IC50
pIC50: −log10 of the molar value.
recorded-metric: pIC50

Solved entries:
molecule	endpoint-value
c1cncc(OC[C@H]2C[C@H](c3cc(Nc4nccn5nccc45)n[nH]3)C2)c1	4.00 to 6.00
CC(C)NC(=O)O[C@H]1CC[C@@H](c2cc(NC(=O)CN(C)c3ncnc4nc[nH]c34)[nH]n2)C1 (single isomer, unassigned)	≥ 7.00
CCOCc1cc2c(Nc3cc([C@H]4C[C@@H](OC(=O)NC(C)C)CO4)[nH]n3)nccn2n1	≥ 7.00
COCc1cc(C(=O)Nc2cc([C@H]3CC[C@@H](Oc4nnccc4C4CC4)C3)[nH]n2)n(C)n1 (single isomer, unassigned)	≥ 7.00
CC(C)NC(=O)O[C@@H]1CC[C@H](c2cc(Nc3ccsn3)n[nH]2)C1 (single isomer, unassigned)	4.00 to 6.00
Cc1cc(CC(=O)Nc2cc([C@@H]3CC[C@H](NC(=O)CC(C)C)C3)[nH]n2)on1 (single isomer, unassigned)	4.00 to 6.00

Turning now to a further molecule:
Q) Would you mind telling me what pIC50 value was observed for Oc1cc(Nc2cc(C3CCCC3)[nH]n2)ncn1 ?
A) 4.00 to 6.00

----------
# target-of-assay: CDK2/Cyclin E complex (Homo sapiens, UniProt P24941)
# protocol: CDK2/Cyclin E fluorescence-based microfluidic mobility shift assay (CDK2 Biochemical Caliper Assay)
# experimental-setup: read-out: Biochemical CDK2/CyclinE Caliper IC50
pIC50: −log10 of the molar value.
Reported values of pIC50 for individual entries

Solved entries:
compound	pIC50
CC1(NC(=O)O[C@H]2CO[C@@H](c3cc(Nc4nccn5nc(COC(F)(F)F)cc45)n[nH]3)C2)CC1	≥ 7.00
Cn1nc(COC(F)(F)F)cc1C(=O)Nc1cc([C@@H]2C[C@H](OC(=O)NC3(C)CC3)CO2)[nH]n1	≥ 7.00
COCc1cc(C(=O)Nc2cc([C@H]3CC[C@@H](Oc4cnccc4C4CC4)C3)[nH]n2)n(C)n1 (single isomer, unassigned)	≥ 7.00

Turning now to a further compound:
Q) Would you mind telling me what pIC50 value was observed for COCc1cc2c(Nc3cc([C@@H]4C[C@H](OC(=O)N[C@@H](C)C5CC5)CO4)[nH]n3)nccn2n1 ?
A) ≥ 7.00

----------
# target-of-assay: CDK2/Cyclin E complex (Homo sapiens)
# protocol: CDK2/Cyclin E fluorescence-based microfluidic mobility shift assay (CDK2 Biochemical Caliper Assay)
# experimental-setup: read-out: Biochemical CDK2/CyclinE Caliper IC50
Reported values of IC50 for individual entries

Solved entries:
compound	endpoint-value
Cc1cc(CC(=O)Nc2cc([C@H]3CC[C@@H](N4CC5(CC5)NC4=O)C3)[nH]n2)on1 (single isomer, unassigned)	250 to 1000 nM
COCc1cc(C(=O)Nc2cc([C@H]3C[C@@H](Oc4cnccc4C4CC4)CO3)[nH]n2)n(C)n1 (single isomer, unassigned)	250 to 1000 nM
COCc1cc(C(=O)Nc2cc([C@H]3CC[C@@H](Oc4nccnc4C)C3)[nH]n2)n(C)n1 (single isomer, unassigned)	250 to 1000 nM

Q) Would you mind telling me what IC50 value was observed for COc1cc(Nc2cc(C3CCCC3)[nH]n2)nc2sccc12 ?
A) 1000 to 100000 nM
